# System: Pseudomonas aeruginosa
# MEASUREMENT NOTES: Antibacterial activity against Pseudomonas aeruginosa ATCC 10145 assessed as growth inhibition after 24 hrs by dilution tube method
# Type: functional
# DETAILS: ATCC 10145, 24 h
MIC listing for selected compounds.

SMILES CODE	SYSTEM UNDER TEST	MIC
Cc1cc(OCCCCCCCC[N+](C)(C)Cc2ccc(Br)o2)c(C(C)C)cc1Cl.Cc1ccc(S(=O)(=O)[O-])cc1	Pseudomonas aeruginosa	25 µg/mL
C[N+](C)(CCCCOc1ccccc1Cl)Cc1ccc([N+](=O)[O-])o1.[Br-]	Pseudomonas aeruginosa	100 µg/mL
Cc1cc(OCCCCCCCCCC[N+](C)(C)Cc2ccc(Br)o2)c(C(C)C)cc1Cl.[Br-]	Pseudomonas aeruginosa	25 µg/mL
C[N+](C)(CCCCCOc1c(Br)cc(Br)cc1Br)Cc1ccco1.[Br-]	Pseudomonas aeruginosa	25 µg/mL
C[N+](C)(CCCCCCCCCCOc1c(Br)cc(Br)cc1Br)Cc1ccc(Br)o1.[Br-]	Pseudomonas aeruginosa	2 µg/mL
C[N+](C)(CCCCCCOc1c(Br)cc(Br)cc1Br)Cc1ccco1.[Br-]	Pseudomonas aeruginosa	5 µg/mL
Cc1cc(OCCC[N+](C)(C)Cc2ccc([N+](=O)[O-])o2)c(C(C)C)cc1Cl.[Br-]	Pseudomonas aeruginosa	2 µg/mL
C[N+](C)(CCCCOc1ccc(Cl)cc1)Cc1ccc(Br)o1.[Br-]	Pseudomonas aeruginosa	50 µg/mL
Cc1cc(OCCCCCCCCCCCC[N+](C)(C)Cc2ccc([N+](=O)[O-])o2)c(C(C)C)cc1Cl.Cc1ccc(S(=O)(=O)[O-])cc1	Pseudomonas aeruginosa	50 µg/mL

FYI, the data here is from ChEMBL document CHEMBL3244174.
